Tested on: PI3Kα mutant cancer cells HGC-27 (E542K)
TEST_DESCRIPTION: Cell Titer-Glo proliferation inhibition, HGC-27
Type: cell-based
CONDITION_DETAILS: Homo sapiens, 48 to 96 hours
PROPERTY: IC50 (nM)

Look up IC50: "C[C@H](Nc1ccc2c(c1)OCCn1cc(N3C(=O)SC[C@H]3CC#N)nc1-2)C(N)=O"
358

(1) C[C@H](Nc1ccc2c(c1)OCCn1cc(N3C(=O)OC[C@H]3CC#N)nc1-2)C(N)=O
(2) C[C@H](Nc1ccc2c(c1)OCCn1cc(N3C(=O)COC[C@H]3C(F)F)nc1-2)C(N)=O
Determine, for 1 and 2 , which has the greater value of IC50. # respond with the chosen item's label
1

----------
TEST_DESCRIPTION: Toxicokinetics in the 7-day repeated intragastric administration study in SD rats
Assay type: in vivo, Sprague-Dawley (SD) rats
CONDITION_DETAILS: Sprague-Dawley, rat, plasma, po, 30 mg/kg intragastric once a day, after the last administration, female, read-out: average system exposure AUC
PROPERTY: AUC (ng·h/mL)
API: value field is a number in ng·h/mL; no unit string.

# query: AUC of entry C[C@H](Nc1ccc2c(c1)OCCn1cc(N3C(=O)OC[C@H]3C(F)F)nc1-2)C(N)=O [GDC-0077, reference compound]
6510

Moving on to the next compound: "C[C@H](Nc1ccc2c(c1)OCCn1cc(N3C(=O)SC[C@H]3C(F)F)nc1-2)C(N)=O"
15900

----------
TEST_DESCRIPTION: Toxicity test of a 7-day repeatedly intragastric administration in SD rats
Format: in vivo
CONDITION_DETAILS: both sexes, Sprague-Dawley, rat, in vivo, po; SD rats, intragastric once/day for 7 days; read-out: maximum tolerated dose (MTD)
Overview of reported MTD at 7 days across a group of compounds:
State the answer as a number, implicitly in mg/kg.

Form field: reported MTD at 7 days of "C[C@H](Nc1ccc2c(c1)OCCn1cc(N3C(=O)SC[C@H]3C(F)F)nc1-2)C(N)=O"
30

Now look at this one.
For the compound shown here, C[C@H](Nc1ccc2c(c1)OCCn1cc(N3C(=O)OC[C@H]3C(F)F)nc1-2)C(N)=O [GDC-0077, reference compound] , give the reported MTD at 7 days.
30

----------
TEST_DESCRIPTION: Pharmacokinetic (PK) assay in mice
Type: in vivo
CONDITION_DETAILS: male, Balb/c, mouse, plasma, po, single intragastric 5 mg/kg, read-out: Area under curve AUC0-t
PROPERTY: AUC(0-t) (ng·h/mL)

Past entries and their recorded results:
Entry "C[C@H](Nc1ccc2c(c1)OCCn1cc(N3C(=O)SC[C@H]3C(F)F)nc1-2)C(N)=O" : reported AUC(0-t) = ?
2180

Next up: "COC[C@H](Nc1ccc2c(c1)OCCn1cc(N3C(=O)OC[C@H]3C(F)F)nc1-2)C(N)=O"
2070

Follow-up item: "C[C@H](Nc1ccc2c(c1)OCCn1cc(N3C(=O)N(C)C[C@H]3C(F)F)nc1-2)C(N)=O"
1280

Do the same for "C[C@H](Nc1ccc2c(c1F)OCCn1cc(N3C(=O)OC[C@H]3C(F)F)nc1-2)C(N)=O" please
4090

Now the same for "C[C@H](Nc1ccc2c(c1F)OCCn1cc(N3C(=O)SC[C@H]3C(F)F)nc1-2)C(N)=O"
4240

(a) C[C@@H](C(N)=O)N(C)c1ccc2c(c1)OCCn1cc(N3C(=O)OC[C@H]3C(F)F)nc1-2
(b) NC(=O)[C@@H]1CCCN1c1ccc2c(c1)OCCn1cc(N3C(=O)SC[C@H]3C(F)F)nc1-2
Name the one with the greater AUC(0-t) value, either a or b as given. // respond with label for picked entry
a

----------
EXPERIMENTAL_SYSTEM: PI3Kα (Homo sapiens, UniProt P42336)
Construct: purchased Promega V1721
Sequence (P42336 whole entry): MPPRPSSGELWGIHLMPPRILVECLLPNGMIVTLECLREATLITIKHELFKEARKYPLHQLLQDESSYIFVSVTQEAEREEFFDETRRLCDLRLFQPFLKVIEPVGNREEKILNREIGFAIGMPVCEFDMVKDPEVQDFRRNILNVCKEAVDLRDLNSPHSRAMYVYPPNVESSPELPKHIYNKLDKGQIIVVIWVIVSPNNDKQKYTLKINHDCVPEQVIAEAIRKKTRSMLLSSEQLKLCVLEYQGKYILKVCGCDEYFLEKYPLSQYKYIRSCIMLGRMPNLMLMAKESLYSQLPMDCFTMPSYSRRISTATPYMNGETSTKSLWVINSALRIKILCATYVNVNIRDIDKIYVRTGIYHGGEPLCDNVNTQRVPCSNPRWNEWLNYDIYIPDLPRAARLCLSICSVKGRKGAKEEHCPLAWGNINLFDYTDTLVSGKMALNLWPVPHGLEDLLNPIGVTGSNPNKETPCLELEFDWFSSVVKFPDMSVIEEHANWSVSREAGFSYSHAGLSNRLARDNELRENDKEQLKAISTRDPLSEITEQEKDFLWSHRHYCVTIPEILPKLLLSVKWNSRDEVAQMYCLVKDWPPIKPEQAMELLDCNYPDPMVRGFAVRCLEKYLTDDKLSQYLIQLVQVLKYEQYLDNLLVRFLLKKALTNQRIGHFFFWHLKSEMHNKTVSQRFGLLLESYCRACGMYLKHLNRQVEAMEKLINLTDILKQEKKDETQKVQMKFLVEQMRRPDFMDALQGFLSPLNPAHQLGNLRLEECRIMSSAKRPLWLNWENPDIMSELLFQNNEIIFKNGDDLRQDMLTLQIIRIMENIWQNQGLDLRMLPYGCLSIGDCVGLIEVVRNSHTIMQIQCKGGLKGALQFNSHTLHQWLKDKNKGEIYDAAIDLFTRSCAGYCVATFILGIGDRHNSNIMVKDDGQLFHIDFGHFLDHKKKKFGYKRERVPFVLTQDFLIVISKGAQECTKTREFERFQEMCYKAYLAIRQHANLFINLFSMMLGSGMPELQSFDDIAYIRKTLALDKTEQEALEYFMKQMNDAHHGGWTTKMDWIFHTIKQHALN
Sequence (P27986 whole entry partner): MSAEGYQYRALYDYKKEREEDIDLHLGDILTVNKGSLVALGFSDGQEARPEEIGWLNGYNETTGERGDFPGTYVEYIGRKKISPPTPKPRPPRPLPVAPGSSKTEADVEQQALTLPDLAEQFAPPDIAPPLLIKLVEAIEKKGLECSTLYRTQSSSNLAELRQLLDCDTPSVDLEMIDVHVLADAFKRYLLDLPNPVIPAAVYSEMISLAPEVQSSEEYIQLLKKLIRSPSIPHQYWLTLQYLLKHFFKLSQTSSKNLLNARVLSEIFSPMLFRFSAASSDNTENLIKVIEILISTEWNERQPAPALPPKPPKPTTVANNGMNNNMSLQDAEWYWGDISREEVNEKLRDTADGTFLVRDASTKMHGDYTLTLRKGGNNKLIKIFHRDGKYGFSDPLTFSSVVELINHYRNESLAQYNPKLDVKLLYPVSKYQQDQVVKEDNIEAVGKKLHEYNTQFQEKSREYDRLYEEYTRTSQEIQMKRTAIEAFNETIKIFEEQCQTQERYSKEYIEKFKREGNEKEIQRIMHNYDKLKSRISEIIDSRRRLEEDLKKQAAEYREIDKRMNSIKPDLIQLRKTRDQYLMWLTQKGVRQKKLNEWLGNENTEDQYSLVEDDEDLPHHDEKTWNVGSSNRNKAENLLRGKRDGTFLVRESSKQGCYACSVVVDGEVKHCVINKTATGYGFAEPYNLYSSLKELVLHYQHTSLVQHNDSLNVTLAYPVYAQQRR
TEST_DESCRIPTION: ADP-Glo lipid kinase assay, PI3Kα kinase activity
Assay type: biochemical
CONDITION_DETAILS: ratio of IC50 PI3Kγ to IC50 PI3Kα
PROPERTY: Selectivity of PI3Kα vs PI3Kγ

Look at this compound and give its reported Selectivity of PI3Kα vs PI3Kγ. C[C@H](Nc1ccc2c(c1)OCCn1cc(N3C(=O)CC[C@H]3CC#N)nc1-2)C(N)=O [Example 117]
202

Follow-up item: C[C@H](Nc1ccc2c(c1)OCCn1cc(N3CC(F)(F)COC3=O)nc1-2)C(N)=O [Example 66]
223

C[C@H](Nc1ccc2c(c1)OCCn1cc(N3C(=O)COC[C@H]3C(F)F)nc1-2)C(N)=O [Example 68] ?
208

Entry C[C@H](Nc1ccc2c(c1)OCCn1cc(N3C(=O)N(C)C[C@H]3C(F)F)nc1-2)C(N)=O [Example 53] please
80

Follow-up entry: C[C@H](Nc1ccc2c(c1)OCCn1cc(N3C(=O)CN(C)C[C@H]3C(F)F)nc1-2)C(N)=O [Example 69]
158

Please do the same for C[C@H](Nc1ccc2c(c1)OCCn1cc(N3C(=O)SC[C@H]3C(F)F)nc1-2)C(N)=O [Example 51] as well.
450

Then what about the compound C[C@H](Nc1ccc2c(c1)OCCn1cc(N3C(=O)SC[C@H]3CC#N)nc1-2)C(N)=O [Example 119] ?
48

(I) C[C@H](Nc1ccc2c(c1)OCCn1cc(N3C(=O)OC[C@H]3CC#N)nc1-2)C(N)=O [Example 118]
(II) COC[C@H](Nc1ccc2c(c1)OCCn1cc(N3C(=O)OC[C@H]3CC#N)nc1-2)C(N)=O [Example 120]
Name the one with the greater Selectivity of PI3Kα vs PI3Kγ value, either I or II as given. Mark your selection by writing its label.
II

----------
AUC listing for selected compounds.
TEST_DESCRIPTION: Toxicokinetics in the 7-day repeated intragastric administration study in SD rats
Assay type: in vivo, Sprague-Dawley (SD) rats
CONDITION_DETAILS: Sprague-Dawley, rat, plasma, po, 10 mg/kg intragastric once a day, after the last administration, male, read-out: average system exposure AUC
State just the number; it will be interpreted in ng·h/mL.

I am curious: what AUC value has been reported for "C[C@H](Nc1ccc2c(c1)OCCn1cc(N3C(=O)SC[C@H]3C(F)F)nc1-2)C(N)=O" ?
2110

Query compound follows.
Request the reported AUC associated with C[C@H](Nc1ccc2c(c1)OCCn1cc(N3C(=O)OC[C@H]3C(F)F)nc1-2)C(N)=O [GDC-0077, reference compound]
845

----------
TEST_DESCRIPTION: Pharmacokinetic (PK) assay in mice
Format: in vivo
CONDITION_DETAILS: male, Balb/c, mouse, plasma, po, single intragastric 5 mg/kg, read-out: Area under curve AUC0-t
PROPERTY: AUC(0-t) (ng·h/mL)

What value of measured AUC(0-t) is listed for "C[C@H](Nc1ccc2c(c1)OCCn1cc(N3C(=O)COC[C@H]3C(F)F)nc1-2)C(N)=O" ?
1320

(A) C[C@H](Nc1ccc2c(c1)OCCn1cc(N3C(=O)O[C@H](C)[C@H]3C(F)F)nc1-2)C(N)=O
(B) COC[C@H](Nc1ccc2c(c1)OCCn1cc(N3C(=O)SC[C@H]3C(F)F)nc1-2)C(N)=O
Which of these two has the smaller recorded AUC(0-t): A or B ? # respond with the chosen item's label
A

----------
IC50 values recorded for PI3Kβ (Homo sapiens)
PROPERTY: IC50 (nM)

Record excerpt, results attached:
GET /values?readout=IC50&item= "C[C@H](Nc1ccc2c(c1)OCCn1cc(N3C(=O)SC[C@H]3C(F)F)nc1-2)C(N)=O"
168

Also "COC[C@H](Nc1ccc2c(c1)OCCn1cc(N3C(=O)OC[C@H]3CC#N)nc1-2)C(N)=O" ?
988

Follow-up item: "C[C@@H](C(N)=O)N(C)c1ccc2c(c1)OCCn1cc(N3C(=O)SC[C@H]3C(F)F)nc1-2"
523

Could you do the same for CC(Nc1ccc2c(c1)OCCn1cc(N3C(=O)OC(C)[C@H]3C(F)F)nc1-2)C(N)=O (stereo in doubt) , please?
1870

Moving on to "C[C@H](Nc1ccc2c(c1)OCCn1cc(N3C(=O)N(C)C[C@H]3C(F)F)nc1-2)C(N)=O"
6190

(I) NC(=O)[C@@H]1CCCN1c1ccc2c(c1)OCCn1cc(N3C(=O)SC[C@H]3C(F)F)nc1-2
(II) C[C@H](Nc1ccc2c(c1)OCCn1cc(N3C(=O)OC[C@H]3CC#N)nc1-2)C(N)=O
Select the item with the higher value of IC50 from the options I and II listed. Answer by quoting the chosen item's label.
I
(I: 1230 nM, II: 190 nM)

(A) C[C@H](Nc1ccc2c(c1F)OCCn1cc(N3C(=O)OC[C@H]3C(F)F)nc1-2)C(N)=O
(B) C[C@H](Nc1ccc2c(c1)OCCn1cc(N3C(=O)COC[C@H]3C(F)F)nc1-2)C(N)=O
// select label with min value of measured IC50 from [ A , B ] Lab note: record the label of whichever item you select.
B

(I) CC(C)[C@H](Nc1ccc2c(c1)OCCn1cc(N3C(=O)OC[C@H]3C(F)F)nc1-2)C(N)=O
(II) C[C@H](Nc1cc(F)c2c(c1)OCCn1cc(N3C(=O)OC[C@H]3C(F)F)nc1-2)C(N)=O
Of the two listed items, I and II , which carries the larger IC50 figure? Answer format: the label of the selected item.
II

(a) C[C@H](Nc1ccc2c(c1)OCCn1cc(N3C(=O)O[C@H](C)[C@H]3C(F)F)nc1-2)C(N)=O
(b) C[C@@H](C(N)=O)N(C)c1ccc2c(c1)OCCn1cc(N3C(=O)OC[C@H]3C(F)F)nc1-2
(c) COC[C@H](Nc1ccc2c(c1)OCCn1cc(N3C(=O)SC[C@H]3C(F)F)nc1-2)C(N)=O
Hey, quick one: sort these by IC50, low to high? Order the labels as requested and give them as your answer.
b, c, a
(b: 283 nM, c: 754 nM, a: 1800 nM)

Data provenance: patent US20210221822A1
